Field: z-score. Provide a value for each of the molecules that follow.
Assay: forskolin-driven CRE-LacZ activity in PC12 – cell-based, CRE-LacZ reporter, forskolin-stimulated, primary screen (AID 1146);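 note: PC12 cells with 6xCRE LacZ reporter stimulated by forskolin 10 µM; beta-galactosidase reporter signal reflecting CREB driven transcription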
Details: luminescence, 4.5 h, higher = more signal, called active from +8 up or from −8 down
Activity calls are given as the source filed them.

The value of z-score measured for the molecule O=C1c2ccccc2[C@](Cc2ccccc2I)(C(=O)O)[C@H](c2ccc(CO)cc2)N1Cc1ccccc1C(F)(F)F turned out to be 0.748 (inactive)

Note to self: z-score recorded for Cc1ccc(F)cc1S(=O)(=O)N[C@@H]1CCN(Cc2ccc(C(F)(F)F)cc2)C1 was 0.777 (inactive)

Short answer for Cn1c2c(c3ccccc31)C(=O)C1NC2C=CC1(C)C(=O)OCc1ccccc1 (stereo unspecified) : z-score was 0.716 (inactive)

// z-score value for CN1C(=O)C2C(C1=O)C1C=C(c3ccc(CO)cc3)C2C(C2CC2)N1Cc1sc2ccccc2c1Cl (stereo unspecified) : -0.825 (inactive)

z-score reading for C=CC[C@@]1(C(=O)OC)N=C(c2ccc(OCCCO)cc2)O[C@@H]1c1ccccc1CN=[N+]=[N-] : -1.5 (inactive)

The recorded z-score for entry CN1C(=O)C2C=CC(C(O)C=Cc3ccc([N+](=O)[O-])cc3)N(N3CCCCC3)C2C1=O (stereo unspecified) equals 0.855 (inactive)

Recorded result, [N-]=[N+]=NCc1ccccc1C[C@@]1(C(=O)NCc2ccccc2)N=C(c2ccc(OCCCO)cc2)O[C@@H]1c1ccccc1CN=[N+]=[N-] , z-score: 0.448 (inactive)

Recorded z-score (molecule CC1(C)C(=O)C(c2ccccc2)=C2CN3C(=O)N(CCc4ccccc4)C(=O)C3(Cc3ccccc3)C=C21 (stereo unspecified) ): 0.15 (inactive)

# molecule OCCCc1cc[n+](Cc2cccc(OC(F)(F)F)c2)cc1 ; its z-score = 1.69 (inactive)

response.value for COC(=O)[C@@]1(Cc2ccc(F)cc2)[C@H]2c3cc(C(=O)N(C)C)n(Cc4ccccn4)c3C[C@H]2CN1C(=O)c1ccccc1 (field: z-score) = 0.431 (inactive)

// field: z-score; key: CCCC[C@H]1C[C@@H]1[C@@H]1N(P(=O)(c2ccccc2)c2ccccc2)[C@](CO)(c2ccccc2)CC12CC2 ; value = -1.24 (inactive)

z-score in this record for Cc1ccc(S[C@]2(C(=O)NCCCN(C)C)CC(=O)N(C(C)C)[C@@H]2c2ccc(CO)cc2I)cc1 : 0.561 (inactive)

// recorded z-score for O=C1O[C@@H](c2ccccc2)[C@@H](c2ccccc2)N2[C@@H](c3ccc(O)cc3)[C@]3(C(=O)Nc4ccc(C#CCCO)cc43)[C@@H](C(=O)N3CCCCCCC3)[C@H]12 : -0.394 (inactive)

// field: z-score; key: C=C(C(=O)CC[C@H](OC(=O)c1cccnc1)c1ccccc1OCCO)C(C)C ; value = 0.716 (inactive)

// field: z-score; key: COC(=O)C(CC#Cc1ccc2c(c1)[C@]1(C(=O)N2)[C@H](C(=O)N2CCCCCCC2)[C@H]2C(=O)O[C@H](c3ccccc3)[C@H](c3ccccc3)N2[C@@H]1c1ccccc1OCCO)C(=O)OC ; value = -0.81 (inactive)

In plain terms, [N-]=[N+]=NCc1ccccc1[C@H]1OC(c2ccc(OCCCO)cc2)=N[C@@]1(Cc1ccccc1)C(=O)O has a documented z-score of -0.609 (inactive)
